target_of_assay: T1, Bre1-LR (Bre1 residues 227–700, LBD and RING domains), 6× histidine tag (budding yeast, UniProt Q07457 227-700)
T1 construct: two Bre1 polypeptides form the dimeric coiled-coils of the LBD in the crystal structure; also called WT; source: E. coli BL21 Rosetta (DE3), purified (Ni-NTA, heparin, gel filtration)
T1 sequence (looked up): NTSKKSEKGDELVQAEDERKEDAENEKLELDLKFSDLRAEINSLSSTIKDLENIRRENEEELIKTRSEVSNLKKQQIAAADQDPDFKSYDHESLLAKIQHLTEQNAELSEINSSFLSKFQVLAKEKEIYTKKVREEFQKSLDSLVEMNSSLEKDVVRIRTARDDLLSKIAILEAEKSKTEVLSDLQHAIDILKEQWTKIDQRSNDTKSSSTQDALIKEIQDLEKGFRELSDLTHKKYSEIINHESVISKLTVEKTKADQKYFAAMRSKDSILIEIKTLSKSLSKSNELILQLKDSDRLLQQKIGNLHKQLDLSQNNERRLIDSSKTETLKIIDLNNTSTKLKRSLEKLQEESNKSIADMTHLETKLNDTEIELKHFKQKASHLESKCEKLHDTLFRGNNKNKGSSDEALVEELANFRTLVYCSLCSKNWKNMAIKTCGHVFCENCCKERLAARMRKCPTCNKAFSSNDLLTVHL
measurement_protocol: ITC; Lge1-CT (50–60 μM) injected into Bre1-LR (15 μM); 25°C, 20 mM TRIS (pH 7.5), 200 mM sodium chloride
conditions_used: both partners purified
Examples of binders with documented dH follow.
Write the answer as a number in kcal/mol, unit excluded.

Answered cases to consult:
Lge1-CT K313E/H314E (domain or fragment, budding yeast, UniProt Q02796 261-332, looked up, Lge1, budding yeast, residues 261-332; source: E. coli BL21 Rosetta (DE3): cleared cell extract on chitin resin (pull-down); purified (chitin, heparin, gel filtration) for ITC and SPR) KNVKKTNNTESECEKAREVFKESDSIDSALEELNLKINSNELELRLLNNQCDEEALNIQLTQEKLDSLLLMQ: -43.6
Lge1-CT E303K (domain or fragment, budding yeast, UniProt Q02796 261-332, looked up, Lge1, budding yeast, residues 261-332; source: E. coli BL21 Rosetta (DE3): cleared cell extract on chitin resin (pull-down); purified (chitin, heparin, gel filtration) for ITC and SPR) KNVKKTNNTESECEKAREVFKESDSIDSALEELNLKINSNELKLRLLNNQCDKHALNIQLTQEKLDSLLLMQ: -46.7
Lge1-CT L316N (domain or fragment, budding yeast, UniProt Q02796 261-332, looked up, Lge1, budding yeast, residues 261-332; source: E. coli BL21 Rosetta (DE3): cleared cell extract on chitin resin (pull-down); purified (chitin, heparin, gel filtration) for ITC and SPR) KNVKKTNNTESECEKAREVFKESDSIDSALEELNLKINSNELELRLLNNQCDKHANNIQLTQEKLDSLLLMQ: -65.4

Please examine the following record next.
Dear colleague, I am looking for the recorded dH of the following binder: Lge1-CT E301K/R305E (domain or fragment, budding yeast, UniProt Q02796 261-332, looked up, Lge1, budding yeast, residues 261-332; source: E. coli BL21 Rosetta (DE3): cleared cell extract on chitin resin (pull-down); purified (chitin, heparin, gel filtration) for ITC and SPR) KNVKKTNNTESECEKAREVFKESDSIDSALEELNLKINSNKLELELLNNQCDKHALNIQLTQEKLDSLLLMQ -19.4
